# assay.system: T1, mouse folate receptor alpha expressed on transfected HEK293T cells (mouse, UniProt P35846 25-232)
# T1 construct: also called cell-expressed mouse FRα
# T1 sequence (P35846 25-232 limits assumed): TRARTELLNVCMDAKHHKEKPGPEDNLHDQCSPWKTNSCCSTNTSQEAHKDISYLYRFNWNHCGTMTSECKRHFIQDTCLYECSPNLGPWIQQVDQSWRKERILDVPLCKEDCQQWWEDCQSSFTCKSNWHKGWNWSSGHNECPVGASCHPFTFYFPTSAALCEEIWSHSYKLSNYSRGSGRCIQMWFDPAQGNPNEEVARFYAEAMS
# experimental.details: flow cytometry on HEK293T cells overexpressing mouse FOLR1, His tag detection, PE MFI, non-linear fit
reported.property: EC50 (nM)

{"columns": ["binder", "unit.name", "EC50"],
 "data": [
  ["VHH 3HFO26 (family 1) (VHH) VHH: QVQLQESGGGLVQPGGSLRITCVASGFPFSTYYMSWVRQAPGKGLEWVSGINSNGGVIDYADSVKGRFTISRDNAKNTLYLQLNSLKPEDTALYFCARGRAFVATMPSSLRGQGTQVTVSS", "nM", 1.4],
  ["VHH 2HFO19 (family 1) (VHH, also called Nb19) VHH: QVQLQESGGGLVQPGGSLRVSCAASGFPFSTVYMSWVRQAPGKGLEWVSGINNDGGVIDYADSVKGRFTISRDNAKNTLYLQLNSLKPEDTALYFCARGRSFVATLSSSLRGQGTQVTVSS", "nM", 1.4],
  ["VHH 3MFR60 (family 10) (VHH) VHH: QVQLQESGGGLVQAGGSLRVSCAASGIIFSMNGMGWFRQAPGKQRELVASITSGGSTKYADSVKGRFTISRDNAKNTVYLQMNSLKPEDTAVYYCNIQFGSRWSTYWGQGTQVTVSS", "nM", 1.5],
  ["VHH 2HFO42 (family 3) (VHH, also called 2HF042; Nb42) VHH: QVQLQESGGGLVQAGGSLRLSCAASGSGFSGMIMGWYRQVPGKQRELVATVTSHGTTNYADSVKGRFTISRDNAKNTVLLQMNSLKPEDTAVYYCNAHFPGIYWGKGTQVTVSS", "nM", 1.2],
  ["VHH 2MFR7 (family 1) (VHH, also called 2MFRO7) VHH: QVQLQESGGGLVQPGGSLRLSCAASGFPFSTYYMSWVRQAPGKGLEWVSGINSNGGVIDYADSVKGRFTISRDNAKNTLYLQLNSLKPEDTALYFCARGRAFVATMPSSLRGQGTQVTVSS", "nM", 1.5]
]}
